# assayNotes: log P by HPLC on reversed-phase column (EEC Directive 79/831 Annex V.A8)
# Assay type: physicochemical
property: logP
One number for each entry.

Below: 2 molecules and their reported logP.
Cn1nc(C(F)F)c(C(=O)NC(C)(C)CCc2ccccc2Cl)c1Cl	3.99
CC(CNC(=O)c1c(C(F)F)nn(C)c1Cl)Cc1cc(Cl)cc(Cl)c1 (centres unmarked)	4.04

Please give logP, item by item, for the list that follows.
1. CN(C(=O)c1c(C(F)F)nn(C)c1Cl)C(COc1ccc2ccccc2c1)C1CC1 (racemic)
2. CC(CCc1ncc(C(F)(F)F)cc1Cl)N(C(=O)c1c(C(F)F)nn(C)c1Cl)C1CC1 (centres unmarked)

-- reply
[3.96, 4.11]
